# credit: patent US20080160035A1

TARGET OF ASSAY: T1, hIL-4R on cells (STAT6-transfected HEK293, TF1, TF1/A12) (human, UniProt P24394 26-825)
T1 sequence (looked up): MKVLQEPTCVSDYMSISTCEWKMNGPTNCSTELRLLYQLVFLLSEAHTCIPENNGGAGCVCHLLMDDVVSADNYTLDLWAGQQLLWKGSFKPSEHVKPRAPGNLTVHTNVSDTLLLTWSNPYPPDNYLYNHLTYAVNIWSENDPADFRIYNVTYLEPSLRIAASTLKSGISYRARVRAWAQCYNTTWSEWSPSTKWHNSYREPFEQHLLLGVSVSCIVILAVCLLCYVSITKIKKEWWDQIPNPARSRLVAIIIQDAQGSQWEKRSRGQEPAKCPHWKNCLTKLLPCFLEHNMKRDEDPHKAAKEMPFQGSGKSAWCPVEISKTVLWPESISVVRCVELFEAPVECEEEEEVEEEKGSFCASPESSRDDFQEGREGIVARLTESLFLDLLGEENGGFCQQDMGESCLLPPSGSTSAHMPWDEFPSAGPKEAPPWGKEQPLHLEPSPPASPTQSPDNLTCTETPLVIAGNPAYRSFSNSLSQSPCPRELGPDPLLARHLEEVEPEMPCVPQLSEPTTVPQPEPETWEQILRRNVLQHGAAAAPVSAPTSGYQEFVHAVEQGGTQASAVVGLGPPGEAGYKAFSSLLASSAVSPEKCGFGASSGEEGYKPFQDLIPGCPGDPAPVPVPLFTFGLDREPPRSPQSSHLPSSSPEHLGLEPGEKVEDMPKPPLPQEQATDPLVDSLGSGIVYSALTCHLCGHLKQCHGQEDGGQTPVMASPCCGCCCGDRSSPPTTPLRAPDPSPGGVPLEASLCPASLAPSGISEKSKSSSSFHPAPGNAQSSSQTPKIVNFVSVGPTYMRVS
ASSAY PROCEDURE: cell-based or functional assay
The following binders are listed with their measured TF1 Bioassay IC50 (proliferation, 150 pM hIL-13) values.
Write down the numeric answer in nM and omit the unit.

Look over these answered cases.
binder="VAK11D4-1 (antibody, V domains shown, Apparently tested with mouse constant region (anti-mouse IgG capture/detection)) VH: QVRLVESGGGVVQPGRSLRLSCVASGFTFRSYGMHWVRQAPGRGLEWVAVISYDGSQTFYVDSVKVRFTISRDNSNNTLYLEMNSLRVDDTAVYFCVKEGRSGSWFDPWGQGTLVAVSS VL: DIHMTQSPSSLSASVGDRVTITCRASQAINNYLAWFQQKPGRTPKSLIFATSSLQSGVPSRFSGSGSGTDFTLTISSLQPEDFATYYCQQYNSHPWTFGQGTKVEIK" result_value=0.44
binder="VAB 15C8-17 (antibody, V domains shown, Apparently tested with mouse constant region (anti-mouse IgG capture/detection)) VH: QVQLVESGGGLVQPGGSLRLSCAVSGFTISDHYMSWIRQAPGKGLEWISYISSSGSKIYYADSVKGRFTISRDNAKNSLFLQMNSLRAEDTAVYYCARTRQLVGDYWGQGTLVTVSS VL: DIQLTQSPSFLSASVGDRVTITCWASQGISSYLAWYQQKPGKAPKLLIFAASTLQSGVPSRFSGSGSGTEFTLTISSLQPEDFATYYCQQLNSYPLTFGGGTKVEIR" result_value=2.6
binder="VAK10G6-7 (antibody, V domains shown, Apparently tested with mouse constant region (anti-mouse IgG capture/detection)) VH: QVQLVESGGGVVQPGRSLRLSCTASGFTFSSFGMHWVRQAPGRGLEWVAVISYDGSKKYYADSVKVRFTISRDNSKNTLYLQMNSLRVDDTAVYFCAKEGRTGNWFDPWGQGTLVAVSS VL: DIQMTQSPSSLSASVGDRVTITCRASQAINNYLAWFQQKPGKTPKSLIFATSSLQSGVPSRFSGTGSGTDFTLTISSLQPEDFATYYCQQYNSHPWTFGQGTKVEIR" result_value=0.46
binder="VAK10G12-5 (antibody, V domains shown, Apparently tested with mouse constant region (anti-mouse IgG capture/detection)) VH: QVQLVESGGGVVQPGGSLRLSCAASGFTFSSYGMHWVRQAPGRGLEWVAVLSYDGSKEFYADSVKVRFTVSRDNSKNTLYLQMSSLRVEDTAIYFCAKEGRTGNWFDPWGQGTLVAVSS VL: DIQMTQSPSSLSASVGDRVTITCRASQAINNFLAWFQQKPGKTPKSLIFATSSLQSGVPSRFSGSESGTDFTLTISSLQPEDFATYYCQQYNSHPWTFGQGTKVEIK" result_value=1.9

Please turn your attention to the following entry.
Lookup: I would be grateful if you could share the reported TF1 Bioassay IC50 (proliferation, 150 pM hIL-13) for VAK8G11-13 (antibody, V domains shown, Apparently tested with mouse constant region (anti-mouse IgG capture/detection)) VH: QVRLVESGGGVVQPGGSLRLSCAASGFIFRSYGMHWVRQAPGRGLEWVAVISYDGSKTFYVDSVKVRFTISRDNSKNTLYLEMNSLRVDDTAVYFCVKEGRSGSWFDPWGQGTLVAVSS VL: DIHMTQSPSSLSASVGDRVTITCRASQAINNFLAWFQQKPGKTPKSLIFATSSLQSGVPSRFSGSGSGTDFTLTISSLQPEDFATYYCQQYNSHPWTFGQGTKVEIK .
Found: 0.42
